- Tested on: HEK293
- Experiment notes: Cytotoxic Profiling of Annotated Libraries Using Quantitative High-Throughput Screening (AID 1296008); note: % is set by controls: 0 for no effect and ±100 for the full control effect; nearly all actives have a fitted effect of over 60% in size
- Measurement context: Five cell lines viability, CellTiter-Glo ATP luminescence, 48-72 h; stronger effect = lower value
- Method: Cell-based phenotypic screening is a commonly used approach to discover biological pathways, novel drug targets, chemical probes and high-quality hit-to-lead molecules. […] A pintool (Kalypsys) was used to transfer 23 nL of compound solution to the 1536-well assay plates. […] Plates were left at room temperature for 10 min before imaging the ATP-coupled luminescence using a ViewLux microplate imager (PerkinElmer, Waltham, MA).
Records with an inconclusive call do not appear. The source made the active and inactive calls. Calls come from the whole dose curve; as a rule, active = well fitted inhibition curve with a large enough effect; inconclusive = small, poorly fitted or top-dose-only effect; inactive = flat fitted curve, though single readings scatter.

>  <Compound>
COP(=S)(OC)Oc1ccc(S(=O)(=O)N(C)C)cc1

>  <max response>
-6.52% (inactive)

$$$$
>  <Compound>
CCCOC(=O)c1cncn1C(C)c1ccccc1 (configuration not stated)

>  <max response>
1.16% (inactive)

$$$$
>  <Compound>
NC(=O)CS(=O)C(c1ccccc1)c1ccccc1 (configuration not stated)

>  <max response>
2.52% (inactive)

$$$$
>  <Compound>
COc1cc(OC)c(OC)cc1C=O

>  <max response>
-6.96% (inactive)

$$$$
>  <Compound>
O=c1[nH]c2ccccc2n1C1CCNCC1

>  <max response>
-4.64% (inactive)

$$$$
>  <Compound>
CC(C(=O)c1ccccc1)N(C)C (configuration not stated)

>  <max response>
-1.39% (inactive)

$$$$
>  <Compound>
CCC(CC)(CNC(=O)CCCO)c1cccc(OC)c1

>  <max response>
-5.56% (inactive)

$$$$
>  <Compound>
CC(C)N(CCC(C(N)=O)(c1ccccc1)c1ccccn1)C(C)C (configuration not stated)

>  <max response>
-72.3% (inactive)

$$$$
>  <Compound>
C#C[C@]1(O)CC[C@H]2[C@@H]3CCC4=CC(=O)CC[C@]4(C)[C@H]3CC[C@@]21C

>  <max response>
2.42% (inactive)

$$$$
>  <Compound>
CC(Cc1ccccc1)N(C)Cc1ccco1 (configuration not stated)

>  <max response>
-5.17% (inactive)

$$$$
>  <Compound>
CN1CCC(O)(c2ccc(F)cc2)C(C(=O)c2ccc(F)cc2)C1 (configuration not stated)

>  <max response>
3.5% (inactive)

$$$$
>  <Compound>
O=C(N/N=C/c1ccc([N+](=O)[O-])o1)c1cc([N+](=O)[O-])cc([N+](=O)[O-])c1O

>  <max response>
1.49% (inactive)

$$$$

---

- Experiment notes: Primary qHTS for Vero E6 cytotoxicity: counterscreen for inhibitors of SARS-S pseudo-typed particle cell entry (AID 1479150); for activity change, negative = cytotoxicity: % is set by controls: 0 for no effect and ±100 for the full control effect
- Measurement context: cell viability; series mostly up to 57.1 µM
Inconclusive results are not listed. Calls of active or inactive are those of the source. Calls come from the whole dose curve.

>  <Compound>
Cc1ccc(C(=O)c2ccc(CC(=O)O)n2C)cc1

>  <activity change, negative = cytotoxicity>
inactive

$$$$
>  <Compound>
Cc1oc(=O)oc1COC(=O)[C@@H]1N2C(=O)[C@@H](NC(=O)[C@H](N)c3ccccc3)[C@H]2SC1(C)C

>  <activity change, negative = cytotoxicity>
inactive

$$$$
>  <Compound>
O=C(O)CCCCC1CCSS1 (stereo unspecified)

>  <activity change, negative = cytotoxicity>
inactive

$$$$
>  <Compound>
CCN(CC)CCNC(=O)c1ccc(N)cc1

>  <activity change, negative = cytotoxicity>
inactive

$$$$
>  <Compound>
CC(=O)NCCCS(=O)(=O)O

>  <activity change, negative = cytotoxicity>
inactive

$$$$
>  <Compound>
COc1cc(NS(=O)(=O)c2ccc(N)cc2)nc(C)n1

>  <activity change, negative = cytotoxicity>
inactive

$$$$
>  <Compound>
CC(=O)[C@@]1(O)CC[C@H]2[C@@H]3C[C@H](C)C4=CC(=O)C=C[C@]4(C)[C@@]3(F)[C@@H](O)C[C@@]21C

>  <activity change, negative = cytotoxicity>
inactive

$$$$
>  <Compound>
C=CCC1(C(C)CC)C(=O)NC(=O)NC1=O (stereo unspecified)

>  <activity change, negative = cytotoxicity>
inactive

$$$$
>  <Compound>
Cc1ccc(Cl)c(Nc2ccccc2C(=O)O)c1Cl

>  <activity change, negative = cytotoxicity>
inactive

$$$$
>  <Compound>
O=c1[nH]cnc2[nH]ncc12

>  <activity change, negative = cytotoxicity>
inactive

$$$$
>  <Compound>
Nc1ncnc2c1ncn2[C@@H]1O[C@H](CO)[C@@H](O)[C@H]1O

>  <activity change, negative = cytotoxicity>
inactive

$$$$
>  <Compound>
CC12CCC(CC1)C(C)(C)O2

>  <activity change, negative = cytotoxicity>
inactive

$$$$
>  <Compound>
C[N+]1(C)[C@@H]2CC(OC(=O)[C@H](CO)c3ccccc3)C[C@H]1[C@@H]1O[C@@H]12 (stereo partly specified)

>  <activity change, negative = cytotoxicity>
inactive

$$$$
>  <Compound>
CCS(=O)(=O)CCn1c([N+](=O)[O-])cnc1C

>  <activity change, negative = cytotoxicity>
inactive

$$$$
>  <Compound>
Cc1c(C(=O)O)c(O)cc2c1C(=O)c1c(O)c([C@@H]3O[C@H](CO)[C@@H](O)[C@H](O)[C@H]3O)c(O)c(O)c1C2=O

>  <activity change, negative = cytotoxicity>
inactive

$$$$
>  <Compound>
CCC(=O)c1c(O)cc(O)cc1O

>  <activity change, negative = cytotoxicity>
inactive

$$$$
>  <Compound>
NC(=O)N1c2ccccc2C=Cc2ccccc21

>  <activity change, negative = cytotoxicity>
inactive

$$$$
>  <Compound>
CCCNC(C)C(=O)Nc1c(C)csc1C(=O)OC (stereo unspecified)

>  <activity change, negative = cytotoxicity>
inactive

$$$$
>  <Compound>
O=C(OOC(=O)c1ccccc1)c1ccccc1

>  <activity change, negative = cytotoxicity>
inactive

$$$$
>  <Compound>
CS(=O)(=O)c1ccc([C@@H](O)[C@@H](CF)NC(=O)C(Cl)Cl)cc1

>  <activity change, negative = cytotoxicity>
inactive

$$$$
>  <Compound>
CC(C)(C)NCC(O)COc1cccc2c1C[C@H](O)[C@H](O)C2 (stereo partly specified)

>  <activity change, negative = cytotoxicity>
inactive

$$$$
>  <Compound>
CCn1cc(C(=O)O)c(=O)c2cc(F)c(N3CCNC(C)C3)c(F)c21 (stereo unspecified)

>  <activity change, negative = cytotoxicity>
inactive

$$$$
>  <Compound>
NS(=O)(=O)c1cc(C(=O)O)cc(N2CCCC2)c1Oc1ccccc1

>  <activity change, negative = cytotoxicity>
inactive

$$$$
>  <Compound>
O=C(O)Cc1sc(-c2ccccc2)nc1-c1ccc(Cl)cc1

>  <activity change, negative = cytotoxicity>
inactive

$$$$
>  <Compound>
O=C(/C=C/c1ccccc1)OCc1ccccc1

>  <activity change, negative = cytotoxicity>
inactive

$$$$
>  <Compound>
OC[C@H]1O[C@H](O[C@]2(CCl)O[C@H](CCl)[C@@H](O)[C@@H]2O)[C@H](O)[C@@H](O)[C@H]1Cl

>  <activity change, negative = cytotoxicity>
inactive

$$$$

---

- Target of assay: Nucleoprotein (Lymphocytic choriomeningitis virus (strain Armstrong)) (UniProt P09992)
- Sequence (P09992 whole entry, looked up): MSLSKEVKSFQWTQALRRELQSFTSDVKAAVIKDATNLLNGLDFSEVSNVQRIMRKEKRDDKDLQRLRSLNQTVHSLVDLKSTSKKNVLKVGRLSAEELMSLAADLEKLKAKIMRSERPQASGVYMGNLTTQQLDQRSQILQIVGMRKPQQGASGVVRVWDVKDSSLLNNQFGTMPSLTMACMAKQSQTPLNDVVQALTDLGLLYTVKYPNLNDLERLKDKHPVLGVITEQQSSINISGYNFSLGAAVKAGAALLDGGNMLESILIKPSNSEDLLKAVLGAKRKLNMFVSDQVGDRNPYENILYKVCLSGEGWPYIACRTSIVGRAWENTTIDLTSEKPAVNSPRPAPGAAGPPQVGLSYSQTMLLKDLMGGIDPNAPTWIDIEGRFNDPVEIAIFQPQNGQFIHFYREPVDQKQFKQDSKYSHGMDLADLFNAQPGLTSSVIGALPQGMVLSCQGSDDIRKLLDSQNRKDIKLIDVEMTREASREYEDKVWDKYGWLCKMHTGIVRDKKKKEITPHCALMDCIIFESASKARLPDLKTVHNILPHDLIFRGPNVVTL
- Experiment notes: qHTS for Inhibitors of the Functional Ribonucleoprotein Complex (vRNP) of Lymphocytic Choriomeningitis Arenaviruses (LCMV): LCMV Primary Screen - GLuc reporter signal (AID 1347086); note: % is set by controls: 0 for no effect and ±100 for the full control effect; nearly all actives have a fitted effect of over 70% in size
- Measurement context: LCMV minigenome vRNP cell assay, Gaussia luciferase reporter; series mostly up to 57.5 µM
Results filed as inconclusive are left out. Active and inactive are the calls of the source. Calls follow the shape of the full dose curve.

>  <Compound>
O=C(O)c1ccc(S(=O)(=O)N(Cl)Cl)cc1

>  <Target of assay>
Nucleoprotein (Lymphocytic choriomeningitis virus (strain Armstrong)) (UniProt P09992)

>  <outcome>
inactive

$$$$
>  <Compound>
CCCN(CCC)C(=O)Cc1c(-c2ccc(Cl)cc2)nc2ccc(Cl)cn12

>  <Target of assay>
Nucleoprotein (Lymphocytic choriomeningitis virus (strain Armstrong)) (UniProt P09992)

>  <outcome>
inactive

$$$$
>  <Compound>
CC(=O)NCc1c(I)c(NC(C)=O)c(I)c(C(=O)O)c1I

>  <Target of assay>
Nucleoprotein (Lymphocytic choriomeningitis virus (strain Armstrong)) (UniProt P09992)

>  <outcome>
inactive

$$$$
>  <Compound>
NC(CO)(CO)CO

>  <Target of assay>
Nucleoprotein (Lymphocytic choriomeningitis virus (strain Armstrong)) (UniProt P09992)

>  <outcome>
inactive

$$$$
>  <Compound>
CN(C)C(=O)COC(=O)Cc1ccc(OC(=O)c2ccc(N=C(N)N)cc2)cc1

>  <Target of assay>
Nucleoprotein (Lymphocytic choriomeningitis virus (strain Armstrong)) (UniProt P09992)

>  <outcome>
inactive

$$$$
>  <Compound>
C[C@@H](O)[C@H]1C(=O)N2C(C(=O)O)=C(SCCN=CN)C[C@H]12

>  <Target of assay>
Nucleoprotein (Lymphocytic choriomeningitis virus (strain Armstrong)) (UniProt P09992)

>  <outcome>
inactive

$$$$
>  <Compound>
COC(=O)c1cc(Cl)ccc1NS(=O)(=O)C(F)(F)F

>  <Target of assay>
Nucleoprotein (Lymphocytic choriomeningitis virus (strain Armstrong)) (UniProt P09992)

>  <outcome>
inactive

$$$$
>  <Compound>
NC(=O)N1c2ccccc2C=Cc2ccccc21

>  <Target of assay>
Nucleoprotein (Lymphocytic choriomeningitis virus (strain Armstrong)) (UniProt P09992)

>  <outcome>
inactive

$$$$
>  <Compound>
O=C(O)c1cc(=O)c2ccccc2o1

>  <Target of assay>
Nucleoprotein (Lymphocytic choriomeningitis virus (strain Armstrong)) (UniProt P09992)

>  <outcome>
inactive

$$$$
>  <Compound>
O=C1c2c(O)cccc2Cc2cccc(O)c21

>  <Target of assay>
Nucleoprotein (Lymphocytic choriomeningitis virus (strain Armstrong)) (UniProt P09992)

>  <outcome>
inactive

$$$$
>  <Compound>
CC(C)(C)NCC(O)COc1cccc2c1C[C@H](O)[C@H](O)C2 (some centres not stated)

>  <Target of assay>
Nucleoprotein (Lymphocytic choriomeningitis virus (strain Armstrong)) (UniProt P09992)

>  <outcome>
inactive

$$$$
>  <Compound>
COc1ccc(C(=O)N2CCN(CC(=O)N3CCOCC3)CC2)cc1

>  <Target of assay>
Nucleoprotein (Lymphocytic choriomeningitis virus (strain Armstrong)) (UniProt P09992)

>  <outcome>
inactive

$$$$
